Test system: HCT-116 colon
Experiment: NCI tumour cell line growth inhibition, 48 h
# maps each entry to its GI50

Worked cases, answers included:
compound=CCOC(=O)/C=C/C(C(=O)/C=C/c1ccc(O)c(OC)c1)=C(O)\C=C\c1ccc(O)c(OC)c1 measured="1.31 µM"
compound=COc1cc(/C=C2\CN(C)C/C(=C\c3cc(CN4CCCCC4)c(O)c(OC)c3)C2=O)cc(CN2CCCCC2)c1O measured="2.5 µM"
compound=O=Nc1ccc2ccccc2c1O measured="2.6 µM"

(Q) Give its GI50 value. Item: C=C(c1ccc(C(=O)N(C)c2ccccc2N)cc1)C(C)N1C(=O)[C@H]2CCCN2C(=O)c2ccccc21 (stereo partly drawn)
(A) 19.8 µM

(Q) Consider next the compound O=C(Nc1ccc(Cl)cc1)c1cc(-c2ccc(Cl)cc2)c2sc(=O)[nH]c2n1 in the same way.
(A) 2.4 µM

(Q) Request: CCCCCCCCCCCCSC(=N)N
(A) 3.86 µM

(Q) Ok, now C=C1C(=O)O[C@H]2[C@H]1CC/C(COC(=O)CSCC(=O)OC/C1=C/CC[C@@]3(C)O[C@H]3[C@H]3OC(=O)C(=C)[C@@H]3CC1)=C\CC[C@@]1(C)O[C@@H]21
(A) 0.466 µM

(Q) What do you get for NS(=O)(=O)c1cccc(N=Cc2c(O)[nH]c3ccccc23)c1 ?
(A) > 25 µM

(Q) And O=C(c1ccco1)c1c(C(F)(F)F)n([O-])c2ccccc2[n+]1=O ?
(A) 0.434 µM

(Q) Repeat for the following compound: Cc1c2c[n+](C(C)C)ccc2c(C)c2c1[nH]c1ccccc12
(A) 4.36 µM

(Q) // same read-out, input: O=C(CCl)N1c2ccccc2Sc2ccc3ccccc3c21
(A) 0.652 µM

(Q) Proceed to CO[C@@H]1/C=C(C)/C=C/[C@@H](C)/C=C(\C)C(=O)OC(/C(C)=C/C=C(\C)CNC(=O)[C@H](CO)NC=O)[C@@H](C)/C=C/C=C/[C@H](OC)CC/C=C(C)/C=C/C1 (stereo partly drawn)
(A) < 0.005 µM

(Q) Next up: O=C(O)c1cc2cc(OCc3ccccc3)c(OCc3ccccc3)cc2[nH]1
(A) 17.1 µM

(Q) Now the compound O=[Se](=O)c1ccccc1.O=[Se](=O)c1ccccc1.[Cu]
(A) 17.4 µM

(Q) Record: COc1ccccc1/C=N\N=C(N/N=C/c1ccccc1OC)N/N=C/c1ccccc1OC
(A) 3.04 µM

(Q) Next up: C#Cc1c(C(N)=O)ncn1C1OC(COP(=O)(OCc2ccc([N+](=O)[O-])o2)N(C)CCCCCl)C(O)C1O (stereo not drawn)
(A) 38.2 µM

(Q) Then what about the compound O=c1cc(-c2ccccc2)[nH]n1-c1nc2ccccc2[nH]1 ?
(A) 3.12 µM

(Q) What do you get for O=C(N/N=C/c1ccccc1O)C(=O)Nc1ccc(F)cc1 ?
(A) 3.19 µM
